Source of measurements: PubChem BioAssay

assay: reducers of endogenous Her2 protein level, primary screen, SKBR3 breast tumor cells, AlphaScreen, ATP viability (AID 461); settings: 18-24 h, measured here: SKBR3 viability, ATP luminescence, at 10 µM;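 further: percent of carrier control wells set as 100% viability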
Parameter Measured: viability (%)
Numbers only, in %.

Recorded viability, per entry:
Give its viability value. Item: CCN1CCc2c(C#N)c(N3CCOCC3)nc(NCc3ccccc3)c2C1
84.5

Request the reported viability associated with CCOc1ccc(NCCC(=O)c2ccc3c(c2)OCO3)cc1
90

Fill blank: measured viability of the compound O=S(=O)(Cc1ccccc1)N1CCCCCC1 is ____.
93

Form field: reported viability of CCCCc1noc2c1/C(=N\O)CC(c1ccccc1)C2 (stereo unspecified)
86

Find the recorded viability belonging to O=c1oc2ccccc2n1CCn1c2ccccc2c2nc3ccccc3nc21 and report it.
85

Give measured viability for every item shown.
1. COc1ccc(N2CCN(C(=O)COc3ccc4ccccc4c3)CC2)cc1
2. CCCOc1ccccc1NC(=O)c1c(-c2ccccc2)noc1C
3. Cn1c(=O)c2c(nc(N3CCCCC3)n2CCSc2nc3ccccc3o2)n(C)c1=O
4. O=C(COC(=O)C1CCN(S(=O)(=O)c2cccs2)CC1)c1cc2ccccc2o1
5. Cc1cc(C)cc(-n2nnc(C(=O)NCc3ccco3)c2N)c1

1: 77.5; 2: 84.5; 3: 100; 4: 104; 5: 101

Value lookup for viability; key = O=c1c2nnn(Cc3ccccc3)c2ncn1-c1ccccc1
103

----------
assay: growth inhibitors of H69AR lung tumor, primary screen, human, duplicate replicates (AID 580); conditions: H69AR lung tumor cells viability, ATP luminescence, 72 h; at 10 µM; stronger effect = lower value;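 further: 100% = mean luminescence of untreated wells and 0% = no signal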
Sorting guide: entries reporting viability beneath 90% go in the yes (1) pile, the rest go in the no (0) pile.

Worked cases, answers included:
Please state whether viability is below 90% for O=C(CCSc1ccccc1)N1CCN(C(=O)c2ccco2)CC1
no (0)

Problem: For the compound COc1ccc(Nc2nc(OC)nc(N3CCN(c4ccc(OC)cc4)CC3)n2)cc1 , is viability under 90%?
yes (1)

Confirm or reject: viability of C=C(C)Cn1c(SCC)nc2ccccc2c1=O lies strictly below 90%
yes (1)

# strict comparison: is reported viability < 90%? input = CCOC(=O)c1c(-c2cccs2)csc1NC(=O)CCCC(=O)O
yes (1)

Answer whether the compound Cc1[nH]n2c(=O)cc(Cc3ccccc3)nc2c1C#N has viability strictly less than 90%
yes (1)

More entries:
Strictly below 90%: is that where viability of Cc1cc2nc3c(nc2cc1C)C1(C(=O)O)CCC3(C)C1(C)C (stereo unspecified) sits?
no (0)

A record lists O=C(C1CCN(S(=O)(=O)Cc2ccccc2)CC1)N1CCN(c2ncccn2)CC1 . Is its viability below 90%?
no (0)

Find out if reported viability for CCOc1cc(C(=O)N2CCN=C2SC)cc(OCC)c1OCC is less than 90%
no (0)

----------
assay: 384-well plate pilot, post-Golgi transport modulator project, inhibition of yeast transport mutant growth (AID 636); conditions: absorbance 615 nm, about 18 h, stronger effect = higher value
Parameter Measured: inhibition (%)
Numbers only, in %.

Batch request: inhibition per item, same order as input.
1. Cc1ccc(OCCC(=O)OCC(=O)C(C)(C)C)cc1
2. O=C(Nc1ccccc1N1CCN(C(=O)c2ccc(Cl)cc2)CC1)c1cc2ccccc2o1

1: 0.26; 2: 2.53

Batch request: inhibition per item, same order as input.
1. OCCNCC(O)Cn1ccc2ccccc21 (stereo not given)
2. Cc1ccc(S(=O)(=O)N2CCN(C(=O)CN3C(=O)NC4(CCOc5ccccc54)C3=O)CC2)cc1 (stereo not given)
3. Cc1c(C(=O)OCC(C)C)[nH]c2c1C(=O)CC(c1ccco1)C2 (stereo not given)
4. COc1cc(Cn2c(C(=O)O)cc3sccc32)cc(OC)c1OC

1: -3.77; 2: 4.08; 3: -1.2; 4: -1.97

----------
Consider the following compounds; for each one, report its differential viability (reversal).
assay: reversal of MRP1-mediated doxorubicin resistance, pilot screen, H69AR cells, doxorubicin co-treatment (AID 601); conditions: H69AR cells + 2 uM doxorubicin, CellTiter-Glo, 72 h; at 10 µM; stronger effect = higher value
Activity calls are given as the source filed them.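 The calls were made as follows: active = viability loss from added drug above about 55%, and viability with drug at most 40%, in both replicates (limit read from the data, passing the limit was not always enough); inconclusive = both conditions met in only one replicate; inactive = neither replicate meets both conditions.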

Answered cases to consult:
// lookup differential viability (reversal) for O=C(O)C1CC=CCC1C(=O)NCc1ccccc1 (stereo unspecified)
-3.77% (inactive)

Any idea what differential viability (reversal) was measured for Cn1c(CCCNC(=O)c2ccccc2)nc2ccccc21 ?
18.6% (inactive)

Need differential viability (reversal), item c1cc(-c2nc3ccccc3o2)nc(-c2nc3ccccc3o2)c1
7.43% (inactive)

Quick one: differential viability (reversal) for CCCN1C2=C(C(=O)CCC2)C(c2ccc(O)c(Br)c2)C2=C1CCCC2=O ?
-1.01% (inactive)

Could you report differential viability (reversal) for every entry in the following list?
1. COCCn1c(SCC(=O)c2ccccc2)nc2c(c1=O)SC(C)C2 (stereo unspecified)
2. Cn1cnc(S(=O)(=O)Nc2ccc(C(F)(F)F)cc2)c1

1. 27.6% (inactive)
2. 6.29% (inactive)

----------
experiment: 384-well plate pilot, post-Golgi transport modulator project, inhibition of yeast transport mutant growth (AID 636); conditions: absorbance 615 nm, about 18 h, stronger effect = higher value
For each record, write down the corresponding inhibition.
Numbers only, in %.

// below: answered molecules
Consider the molecule CCN(CCCNC(=O)C1CCN(S(=O)(=O)c2cccc3nonc23)CC1)Cc1ccccc1 and give its measured inhibition.
-5.39

Need inhibition of COc1cc(C2c3c(n[nH]c3C)C(=O)N2c2ccc(Br)cc2)ccc1O (stereo unspecified) , thanks.
-0.13

Below are some molecules; for each one, tell me its inhibition.
1. O=C(CCN1CCN(c2ccc(F)cc2)CC1)Nc1ccccc1F
2. CC1(C)CC(=O)C(C=NCCc2ccc(S(N)(=O)=O)cc2)=C(O)C1

-5.73
-6.13

// each molecule listed below needs its inhibition
1. COCn1c(COc2ccccc2)nc2ccccc21
2. COc1cccc(OC)c1C(=O)N1CCN(S(=O)(=O)c2ccc(C)cc2)CC1
3. CC(C)OC(=O)CN1C(=O)C(C)(C)Oc2ccc(C(=O)NC3CC3)cc21
4. O=C(O)c1[nH]nc2c1COc1ccccc1-2
5. Cc1cc(C)c2cc3c(ccn3C3OC[C@H](O)[C@H](O)[C@H]3O)cc2n1 (stereo partly specified)

-9.32
-7.2
-3.2
-0.92
-1.92

Parameter requested: inhibition. Apply to each item below.
1. Cc1cc(C(=O)OCC(=O)N2c3ccccc3CC2C)c(C)o1 (stereo unspecified)
2. CC(Oc1ccc(Cl)cc1Cl)C(=O)Nc1ncccn1 (stereo unspecified)

1: -4.05; 2: -1.17

----------
Exercise: for every item that follows, state its recorded inhibition.
test: 384-well plate pilot, post-Golgi transport modulator project, inhibition of yeast transport mutant growth (AID 636); conditions: absorbance 615 nm, about 18 h, stronger effect = higher value
The source made the active and inactive calls. No stated cut-off is given here; in the data, active means inhibition above about 31%; inactive means the rest.

Known inhibition results, listed for orientation:
Consider the compound O=C(O)C1CCCCC1C(=O)NCCc1ccccc1 (stereo unspecified) and give its measured inhibition.
0.55% (inactive)

# input compound: CCCC(=O)N(Cc1cc2ccccc2[nH]c1=O)c1ccccc1OC ; wanted: its inhibition
-0.26% (inactive)

inhibition for COCCNC(=O)C(C)OC(=O)c1nsc(Cl)c1Cl (stereo unspecified) ?
-1.08% (inactive)

Requested field: inhibition. Item: COc1cc2c(cc1OC)C(C)N(C(=O)c1cc3n(n1)C(C(F)(F)F)CC(c1ccco1)N3)CC2 (stereo unspecified)
-6% (inactive)

Any idea what its inhibition is? The compound is COc1cc(NC(=O)Cc2cccs2)ccc1-n1cnnn1
-6.13% (inactive)

# inhibition lookup, item COc1cccc(C(=O)OCn2nnc3ccccc3c2=O)c1
-0.13% (inactive)

Sample CCOC(=O)N1CCN(C(=O)CSc2ncnc3ccccc23)CC1 — what was its inhibition?
-1.33% (inactive)

// lookup inhibition for O=S(=O)(c1ccc2ccccc2c1)N(CC(O)CN1CCOCC1)c1ccccc1 (stereo unspecified)
-5.87% (inactive)

Name the reported inhibition value associated with the compound Clc1ccc(OCc2nc(-c3ccccn3)no2)c(Br)c1
-0.26% (inactive)

Sample Cc1cc(=O)n2[nH]c(COc3ccccc3)nc2n1 — what was its inhibition?
-5.33% (inactive)

Return reported inhibition values for all items listed beneath this line.
1. Cc1ccc(S(=O)(=O)NCCNC(=O)c2ccccc2)cc1
2. O=S(=O)(c1ccc2nc(Cc3cccc(C(F)(F)F)c3)[nH]c2c1)N1CCOCC1

-8.92% (inactive)
-1.69% (inactive)

----------
So I've got a bunch of molecules here, and I need their viability values.
assay: reducers of endogenous Her2 protein level, primary screen, SKBR3 breast tumor cells, AlphaScreen, ATP viability (AID 461); conditions: 18-24 h, measured here: SKBR3 viability, ATP luminescence, at 10 µM;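 further: percent of carrier control wells set as 100% viability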
For clarity, give the value followed by its unit.

Here's what some known entries look like.
Look at this molecule and give its reported viability. COc1ccc2nc(NC(=O)CSc3nnc(-c4ccoc4C)n3C)sc2c1
112%

Reported viability, molecule CCOc1cccc(OCCOCCN2CCCC2)c1 : ____
107%

State the recorded viability for this entry: Clc1ccccc1OCc1nn2c(-c3ccncc3)nnc2s1
114%

// each listed molecule needs a value for viability
1. Cc1nn(-c2ccc(F)cc2)c2sc(C(=O)O)cc12
2. COc1ccc(OCC(=O)N2CCN(C(=O)c3cccs3)CC2)cc1
3. CCOC(=O)c1c(C)[nH]c(C(=O)COC(=O)C2CC2C)c1C (stereo unspecified)
4. O=C(NC1CCCCC1)n1c(=O)oc2ccc(Cl)cc21
5. O=C(O)CCc1ccc(-c2ccc(F)cc2)n1CC(=O)O
6. COc1ccc2c(c1)C(C)=CC(C)(C)N2C(=O)CSc1nnc(-c2ccc(C)cc2)o1
7. O=C(CN(C(=O)CCNC(=O)c1ccco1)c1ccccc1)NC1CCCC1

99%
117%
117%
118%
94.5%
98.5%
93%

If you can, please state the reported viability value of CCOC(=O)c1[nH]c2ccc(C)cc2c1N=C(C)N(C)C .
100%
